// reported inhibition at 10 µM per item
Tested on: UO-31
Assay: NCI-60 one-dose screen
Type: cell-based
Conditions: Homo sapiens; UO-31, Renal Cancer panel; single dose 10^−5 M; read-out: Growth inhibition %
Provide only the numeric value, understood in %.

Clc1ccc(CNc2c3ccccc3nc3ccccc23)cc1    73

[in] # get_value(readout='inhibition at 10 µM', item= "c1coc(CNc2c3ccccc3nc3ccccc23)c1" )
[out] 60.5

[in] # get_value(readout='inhibition at 10 µM', item= "Fc1ccccc1CNc1c2ccccc2nc2ccccc12" )
[out] 72.3

[in] # get_value(readout='inhibition at 10 µM', item= "COc1ccc(CNc2c3ccccc3nc3ccccc23)cc1F" )
[out] 86.5
